- measurement notes: NCI Yeast Anticancer Drug Screen. Data for the rad50 strain (AID 155);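 also: 0% = growth of vehicle-only cultures of the same strain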
- measurement setup: S. cerevisiae rad50 strain growth inhibition; at 50.0 µM; hits give high values
Compounds without any hit were thinned out: in the full panel of roughly 79,000, 15% have a hit.
Could you label it yes if measured growth inhibition is 80% or higher, and no otherwise?

CCCCCC(/C=N/NC(N)=S)C(O)(C(F)(F)F)C(F)(F)F (stereo unspecified)	no
O=C1OC(C2OC(=O)C(=O)C2C(=O)c2ccc(Cl)cc2)C(C(=O)c2ccc(Cl)cc2)C1=O (stereo unspecified)	yes
O=C(O)c1ccccc1C(c1ccccc1)c1ccccc1	no
CC(C)SC(=S)Nc1ccc(Cl)cc1	yes
CNC(=O)c1cc(NC(=O)c2ccc(C(=O)Nc3cc(C(=O)NC)cc(C4=NCCN4)c3)cc2)cc(C2=NCCN2)c1	yes

Okay, now this compound:
Assess whether reported growth inhibition for `CCOC(=O)Cn1c(=O)c2nc(SC)sc2n(-c2ccc(C)cc2)c1=S` sits at 80% or higher. no

* * *

The reader will find reported growth inhibition values listed item by item below.
- measurement notes: NCI Yeast Anticancer Drug Screen. Data for the mlh1 rad18 strain (AID 175)
- measurement setup: S. cerevisiae mlh1 rad18 strain growth inhibition; at 50.0 µM; hits give high values
About 79,000 compounds went through this panel and 15% of them were active in at least one assay; those are over-represented in the sample as a whole.
Express the result in % but write the number alone.

CC1(C)N=C(N)N=C(N)N1c1cccc(OCc2cccc(N)c2)c1	9.1
Cc1nc2c(Cl)cccc2c2ccccc12	94.5
CCC12C=CCN3CCC4(c5cc(C(c6ccccn6)c6cc7ccccc7n6C)c(OC)cc5N(C)C4C(O)(C(=O)OC)C1OC(C)=O)C32 (stereo unspecified)	94.7
N#CC1C(=O)NC(=O)C(C#N)C1c1c(Cl)cccc1Cl (stereo unspecified)	94.7
CC1N(O)C(c2ccccc2)C(c2ccccc2)=[N+]1[O-] (stereo unspecified)	-37.4

Name the reported growth inhibition value associated with the compound `CC(C)c1ccc(CN(CCO)Cc2ccc(C(C)C)cc2)cc1` 81.8

* * *

- measurement notes: NCI Yeast Anticancer Drug Screen. Data for the cln2 rad14 strain (AID 165);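 also: 0% = growth equal to vehicle treated cultures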
- measurement setup: S. cerevisiae cln2 rad14 strain, at 5.0 µM (retest, dose inferred, filed as 0.5), hits give high values
- Method: Growth inhibition of yeast strains with defined genetic alterations is measured as a screen for potential anti-cancer activity. Selected strains with alterations in DNA damage repair or cell cycle control were exposed to compounds and growth inhibition was measured relative to vehicle treated controls. The strain used in this assay is cln2 rad14
This is part of a sample that, as a whole, favours compounds with a hit. Of some 79,000 tested, about 15% had one in any assay.
measured metric: growth inhibition (%)
# number only, unit % dropped from output

CCC(CC)C1(C(=O)OCCN(CC)CC)CCCCC1	2
CN1CC(CN2CCCCC2)C(O)C(c2ccccc2)C1 (stereo unspecified)	-5
Cc1cc(Br)c(P(=O)(O)O)cc1[N+](=O)[O-]	0

Quick check: growth inhibition of `c1c2c(cc(-n3nnc4c3CCCCCC4)c1-n1nnc3c1CCCCCC3)CCCCCC2` ? 17

Query: growth inhibition; subject: CCCCN(Cc1ccccc1)CC(O)c1cc2c(c3ccccc13)CCCC2 (stereo unspecified) -7

Query (molecule): O=C(CC(C(=O)O)c1c[nH]c2ccccc12)c1ccccc1 (stereo unspecified) ; field requested: growth inhibition -5

Which growth inhibition value belongs to `CNC(=O)OCc1c(COC(=O)NC)c(-c2ccc(Cl)c(Cl)c2)n2c1Cc1ccccc1C2` ? 8

Item under review: `Cc1cc(C(O)(c2cc(C)c(O)c(C(=O)O)c2)c2cc(C)c(O)c(C(=O)O)c2)cc(C(=O)O)c1O` . Reported growth inhibition? 6

Returns the measured growth inhibition for the input molecule. Input: `COc1ccc(/C=C2\Sc3scc(-c4ccc([N+](=O)[O-])cc4)[n+]3C2=O)cc1OC` 0

Requested field: growth inhibition. Item: `CN(C)N=Nc1ccc(NC(N)=O)cc1` 38

Fill in the blank: the reported growth inhibition of `CCCOC(=O)COc1ccccc1C(=O)OCCC` is ____. 13

* * *

- measurement notes: NCI Yeast Anticancer Drug Screen. Data for the sgs1 mgt1 strain (AID 161);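 also: 0% = growth of cultures given vehicle only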
- measurement setup: S. cerevisiae sgs1 mgt1 strain, at 50.0 µM, hits give high values
About 79,000 compounds went through this panel and 15% of them were active in at least one assay; those are over-represented in the sample as a whole.
Listed below: growth inhibition values for each entry.
Give just the number in %; leave the unit off.

Quick one: growth inhibition of `COc1ccc(OC)c(C[P+](c2ccccc2)(c2ccccc2)c2ccccc2)c1` ? 98.5

Which growth inhibition is listed for `C=CNC(=O)Oc1ccccc1` ? 12.7

Param item = `Cc1cc(Br)c(P(=O)(O)O)cc1[N+](=O)[O-]` ; retrieve measured growth inhibition. 72

* * *

- measurement notes: NCI Yeast Anticancer Drug Screen. Data for the bub3 strain (AID 167)
- measurement setup: S. cerevisiae bub3 mutant strain, at 50.0 µM, hits give high values
- Procedure: Growth inhibition of yeast strains with defined genetic alterations is measured as a screen for potential anti-cancer activity. Selected strains with alterations in DNA damage repair or cell cycle control were exposed to compounds and growth inhibition was measured relative to vehicle treated controls. The strain used in this assay is bub3
This is part of a sample that, as a whole, favours compounds with a hit. Of some 79,000 tested, about 15% had one in any assay.
Grouping by measured growth inhibition is done with the following cut points: I (below 60%), II (60% to below 90%), III (90% or more)

COC(=O)CSC(=S)Nc1ccc(Cl)cc1	I
Clc1nn2nnnc2c2ccccc12	II
OC(c1ccccc1)(c1ccccc1)C1CCCCC1	I
COC(=O)C1C(c2ccccc2)=N[C@@H](c2ccccc2)[C@H]1C(=O)OC (some centres undefined)	I
CCCC12C=C(OC)C(=O)C=C1OC(c1ccc3c(c1)OCO3)C2C (centres undefined)	II
C=C1C(C2(C)C(OC(C)=O)CC(=O)OC(C)(COC(C)=O)C2CC(=O)OC)C(OC=O)C(OC(=O)C(O)C(C)CC)C2(C)C(c3ccoc3)CC(=O)C12O (centres undefined)	II
COc1ccc(C(=O)CC(=O)c2ccccc2)cc1	II
Nc1ccc2oc(=O)c3ccccc3c2c1	I

Class? Entry: `Fc1ccc(C2(CCCN3CCc4[nH]c5cc(F)ccc5c4C3)OCCO2)cc1` I

Entry `C1=Nc2ccccc2/C1=C/c1ccccc1` belongs to which category? II

Place this molecule in its band: `CCN(CC)Cc1ccc(Nc2cc(C)nc(/N=C(\N)Nc3ccc(Cl)c(Cl)c3)n2)cc1` III

Please report the category associated with O=C1c2cccc(O)c2C(=O)c2c(OC3OC(CO)C(O)C(O)C3O)cccc21 (centres undefined) , nothing else. II

* * *

- measurement notes: NCI Yeast Anticancer Drug Screen. Data for the mec2-1 strain (AID 157)
- measurement setup: S. cerevisiae mec2-1 strain, at 50.0 µM, hits give high values
Compounds without any hit were thinned out: in the full panel of roughly 79,000, 15% have a hit.
Note to self: values exactly at 30% are yes. So growth inhibition at or above 30% is yes, below is no.

CC(C)(O)[C@H](CCO)O[Si](c1ccccc1)(c1ccccc1)C(C)(C)C	yes

Evaluate `O=C1c2ccc(S(=O)(=O)O)cc2C(=O)c2ccc(S(=O)(=O)O)cc21` : growth inhibition at minimum 30%? no

Hi team, for `C#CCNC(C)(C)C` , is the recorded growth inhibition at or above 30%? yes

* * *

- measurement notes: NCI Yeast Anticancer Drug Screen. Data for the bub3 strain (AID 167)
- measurement setup: S. cerevisiae bub3 mutant strain, at 5.0 µM (retest, dose inferred, filed as 0.5)
The panel holds about 79,000 compounds, 15% with a hit somewhere; the sample as a whole holds those more often. Active and inactive are the calls of the source. No stated cut-off is given here; in the data, active means growth inhibition above about 70%; inactive means the rest.
In this exercise, the only acceptable responses are t (active), f (inactive)

CC12CCC(=O)C=C1CCC1C2CCC2(C)C(C(=O)Cn3cnc4c(=S)nc[nH]c43)CCC12 (configuration not stated)	f

Query: recorded result category for O=S1OCCS1 (configuration not stated) in this test f

Field: outcome | Entry: Cc1ccc(NC(=O)CCCC(=O)C(C#N)c2ccccc2C)cc1C (configuration not stated) f

Entry `S=C(N/N=C/c1ccccn1)N1CC2CCC(CC2)C1` : call = ? t

Which outcome was assigned to `c1ccc(CN(CCCOc2ccccc2)Cc2ccccc2)cc1` in this test? f

How was `Cn1cnc([N+](=O)[O-])c1S` classified in this test? f

Per the assay record, what outcome was assigned to `O=c1[nH]cnc2c1ncn2CCc1ccccc1` ? f

Tell me the recorded outcome of this test for `NCC(=O)N/N=C/c1ccc([N+](=O)[O-])o1` . f

Recorded call for `Cc1cc(N(CCC#N)CCC#N)ccc1/C(Sc1ccccc1)=C(\NC(=O)/C=C/c1ccccc1)C(=O)Sc1ccccc1` ? f

Record lookup: outcome of this test for O=C1C=C(c2ccccc2)OC(c2ccccc2)C1 (configuration not stated) ? f

I would be grateful if you could indicate the recorded call for CCOC(=O)/C=C1/C(=O)OC2C1OC1OC(C)(C)OC12 (configuration not stated) . f

Hello, I am checking results. What call was entered for CC1C(c2ccc(Cl)cc2)c2cc3c(cc2OC1N1CCOCC1)OCO3 (configuration not stated) ? f
